Test system: MS2 coat protein
assay protocol: apparent KD of MS2 coat protein; designed switch direction (-1 OFF switch, 1 ON switch): -1; higher = weaker reporter binding
condition description: input ligand: FMN 200 uM
Listed here are sequences together with their documented apparent KD of MS2 coat protein.
Put down the number, then write its unit next to it.

Example entries begin here.
INSERT INTO assay_data (seq_string, measured_endpoint, experimental_value) VALUES
  ('CAAACCAGAGGAUAUGCGCAUAGAUCAGACUUUGUUUCUUAACAUGAGGAUCACCCAUGUAGAAGGCUGUAAAA [Ex2 #73] (Eterna round: R97, puzzle: Exclusion 2)', 'apparent KD of MS2 coat protein', '18.4 nM'),
  ('GGUGUGCUAGGAUAUGCUUUGGGCUCGCUUUCCUUCGUUUUACUUGAGGAUCACCCAAGUAGAAGGUGCUUGCC [salish99_ex2_r4_038] (Eterna round: R97, puzzle: Exclusion 2)', 'apparent KD of MS2 coat protein', '13 nM'),
  ('CUAAAUCAUGUAGGAUAUGCAUAGCGAAGCUAUGCAGAAGGACAUGAGGAUCACCCAUGUUCUUCCGUCUGCGUACAGACGGAA [Mat - Exclusion NG 1 - Mod of JL - D30] (Eterna round: R96, puzzle: Exclusion NG 1)', 'apparent KD of MS2 coat protein', '268 nM');

# input Identify the measured apparent KD of MS2 coat protein of UGAUCUAGCGGAGGAUAUACAUGAGGAUCACCCAUGUAGACUCUAUGACCGUAGUCGUGGAGUGUGUAGAAGGCCGCUAGAUCU [JL ENG2 3.74] (Eterna round: R96, puzzle: Exclusion NG 2) for MS2 coat protein.
# output 14.3 nM

# input Note, next up: CUCCGGCCUGUAGGAUAUGGAUCCGAUUAGGAUCCAGAAGGACAUGAGGAUCACCCAUGUACAUGUAAACAGUCAUCACCGGAC [salish99_ExNG1_r04_203] (Eterna round: R96, puzzle: Exclusion NG 1)
# output 23.8 nM

# input Note, next up: ACUCACUCGCGAGGAUAUGGACAAAUAUAAACGCUAGAAGGCGCGACAUGAGGAUCACCCAUGUACUCACUCACUCACUCACAU [my 1st design ever] (Eterna round: R96, puzzle: Exclusion NG 1)
# output 62.6 nM

# input Note, next up: AUGCCGAGUGUAGGAUAUGGCCCGGAACCACGGCCAGAAGGACAUGAGGAUCACCCAUGUGGCCCGAUAUACACGGUAUCAGAC [Eternabot solution 1] (Eterna round: R96, puzzle: Exclusion NG 1)
# output 44.7 nM
